Target: HTRA1
Conditions: ASO, U251, 5 µM
After the bases stand the sugars from the 5' end (letter, count) and the backbone: PS all phosphorothioate, else s phosphorothioate and o phosphodiester by linkage. Methylation of C is not given here. l = locked nucleic acid (LNA); d = 2'-deoxy (DNA)
Output schema: class label derived from target mRNA inhibition. Mapping: lower range: < 50%; middle range: ≥ 50% and < 70%; upper range: ≥ 70%

GET /class?item= CTCAGTTAAAGGAGGAGAC (sugars l3 d13 l3, PS)
lower range

Which category fits this record: ATGTGTAAGAAGTACT (sugars l4 d8 l4, PS)
lower range

Lab note: sort TCTATCTACGCATTGTA (sugars l3 d11 l3, PS) into the matching target mRNA inhibition band.
upper range

// bin(item) where item = TATCTACGCATTGTATC (sugars l3 d10 l4, PS)
upper range

Category of TCGACTGCATTAGTTG (sugars l3 d10 l3, PS) :
upper range

Which band does GCAATGTGTAAGAAGTAC (sugars l3 d11 l4, PS) fall in?
middle range
